- Tested on: lymphocytes
- experimental_details: Lymphocyte reduction in C57BL/6 mice
- Type: in vivo
- cond: Mus musculus, ip, 30 mg/kg intraperitoneal every day for four days, 24 hours after the last dose, read-out: Lymphocyte reduction % inh. day 4
- Description: An experiment was performed to evaluate the effect of Bcl-2 selective/Bcl-xL sparing compounds on immune cells and platelets, as evaluated in C57Bl/6 mice. Mice were treated four days with compounds (doses of 30 mg/kg, administered by intraperitoneal injection every day) and cell numbers were measured with a Cell Dyn hematology analyzer 24 hours after the first and last doses. […]
metric: inhibition at 30 mg/kg (%)
Return type: number; implicit unit %.

Below: 3 compounds and their reported inhibition at 30 mg/kg.
smiles_string=C[C@@H]1C[C@H](CNc2ccc(S(=O)(=O)NC(=O)c3ccc(N4CCN(CC5=C(c6ccc(Cl)cc6)CC(C)(C)CC5)CC4)cc3Oc3cnc4[nH]ccc4c3)cc2[N+](=O)[O-])C[C@H](C)O1 study_target=lymphocytes units_of_measure=% number=55
smiles_string=CC1(C)CCC(CN2CCN(c3ccc(C(=O)NS(=O)(=O)c4ccc(NC[C@@H]5[C@H]6COC[C@@H]56)c([N+](=O)[O-])c4)c(Oc4cnc5[nH]ccc5c4)c3)CC2)=C(c2ccc(Cl)cc2)C1 study_target=lymphocytes units_of_measure=% number=54
smiles_string=CC1(C)CCC(CN2CCN(c3ccc(C(=O)NS(=O)(=O)c4ccc(NC[C@@H]5CCCOCC5)c([N+](=O)[O-])c4)c(Oc4cnc5[nH]ccc5c4)c3)CC2)=C(c2ccc(Cl)cc2)C1 study_target=lymphocytes units_of_measure=% number=45

### Prompt Given the entry CC1(C)CCC(CN2CCN(c3ccc(C(=O)NS(=O)(=O)c4ccc(NC[C@H]5COCC(C)(C)O5)c([N+](=O)[O-])c4)c(Oc4cnc5[nH]ccc5c4)c3)CC2)=C(c2ccc(Cl)cc2)C1 , report its measured inhibition at 30 mg/kg.
### Response 22

### Prompt Moving on to the next compound: C[C@@H]1CO[C@@H](CNc2ccc(S(=O)(=O)NC(=O)c3ccc(N4CCN(CC5=C(c6ccc(Cl)cc6)CC(C)(C)CC5)CC4)cc3Oc3cnc4[nH]ccc4c3)cc2[N+](=O)[O-])CO1
### Response 60

### Prompt Input CC1(C)CCC(CN2CCN(c3ccc(C(=O)NS(=O)(=O)c4ccc(NCC5CCOCC5)c([N+](=O)[O-])c4)c(Oc4cnc5[nH]ccc5c4)c3)CC2)=C(c2ccc(Cl)cc2F)C1
### Response 78

----------
- System: lymphocytes
- experimental_details: Lymphocyte reduction in C57BL/6 mice
- Assay type: in vivo
- cond: Mus musculus, ip, 30 mg/kg intraperitoneal every day for four days, 24 hours after the last dose, read-out: Lymphocyte reduction % inh. day 4
metric: inhibition at 30 mg/kg (%)
Respond numerically; units are % and should not be typed.

smiles_string=CC1(C)CCC(CN2CCN(c3ccc(C(=O)NS(=O)(=O)c4ccc(NC[C@@H]5CCOC5)c([N+](=O)[O-])c4)c(Oc4cnc5[nH]ccc5c4)c3)CC2)=C(c2ccc(Cl)cc2)C1 number=42
smiles_string=CC1(C)CCC(CN2CCN(c3ccc(C(=O)NS(=O)(=O)c4ccc(NCC5(C)CCOCC5)c([N+](=O)[O-])c4)c(Oc4cnc5[nH]ccc5c4)c3)CC2)=C(c2ccc(Cl)cc2)C1 number=61

Now examine the next entry.
### Prompt So what does the record say about inhibition at 30 mg/kg for CC1(C)CCC(CN2CCN(c3ccc(C(=O)NS(=O)(=O)c4ccc(NC[C@@H]5COCCO5)c([N+](=O)[O-])c4)c(Oc4cnc5[nH]ccc5c4)c3)CC2)=C(c2ccc(Cl)cc2)C1 ?
### Response 41

----------
- Tested on: lymphocytes
- experimental_details: Lymphocyte reduction in C57BL/6 mice
- Format: in vivo
- cond: Mus musculus, ip, 30 mg/kg intraperitoneal every day for four days, 24 hours after the last dose, read-out: Lymphocyte reduction % inh. day 4
Kindly return class 1 if reported inhibition at 30 mg/kg is no lower than 30%; return class 0 if it is lower.

Please review the following examples before continuing.
smiles_string=CC1(C)CCC(CN2CCN(c3ccc(C(=O)NS(=O)(=O)c4ccc(NCC5(O)CCOCC5)c([N+](=O)[O-])c4)c(Oc4cnc5[nH]ccc5c4)c3)CC2)=C(c2ccc(Cl)cc2)C1 assigned_category="class 0"
smiles_string=CC1(C)CCC(CN2CCN(c3ccc(C(=O)NS(=O)(=O)c4ccc(NCC5(C#N)CCOCC5)c([N+](=O)[O-])c4)c(Oc4cnc5[nH]ccc5c4)c3)CC2)=C(c2ccc(Cl)cc2)C1 assigned_category="class 1"
smiles_string=C[C@@H]1COC[C@H](CNc2ccc(S(=O)(=O)NC(=O)c3ccc(N4CCN(CC5=C(c6ccc(Cl)cc6)CC(C)(C)CC5)CC4)cc3Oc3cnc4[nH]ccc4c3)cc2[N+](=O)[O-])O1 assigned_category="class 1"
smiles_string=CC1(C)CCC(CN2CCN(c3ccc(C(=O)NS(=O)(=O)c4ccc(NNC5CCOCC5)c([N+](=O)[O-])c4)c(Oc4cnc5[nH]ccc5c4)c3)CC2)=C(c2ccc(Cl)cc2)C1 assigned_category="class 0"
smiles_string=CC1(C)CCC(CN2CCN(c3ccc(C(=O)NS(=O)(=O)c4ccc(NC[C@H]5COCCO5)c([N+](=O)[O-])c4)c(Oc4cnc5[nH]ccc5c4)c3)CC2)=C(c2ccc(Cl)cc2)C1 assigned_category="class 1"

### Prompt Could you please find out whether C[C@H](Nc1ccc(S(=O)(=O)NC(=O)c2ccc(N3CCN(CC4=C(c5ccc(Cl)cc5)CC(C)(C)CC4)CC3)cc2Oc2cnc3[nH]ccc3c2)cc1[N+](=O)[O-])C1CCOCC1 has inhibition at 30 mg/kg that meets 30% or exceeds it?
### Response class 0

### Prompt Quick one: CC1(C)CCC(CN2CCN(c3ccc(C(=O)NS(=O)(=O)c4ccc(NCC5(CO)CCOCC5)c([N+](=O)[O-])c4)c(Oc4cnc5[nH]ccc5c4)c3)CC2)=C(c2ccc(Cl)cc2)C1
### Response class 0

### Prompt Here is the next molecule: CC1(C)CCC(CN2CCN(c3ccc(C(=O)NS(=O)(=O)c4ccc(NN5CCOCC5)c([N+](=O)[O-])c4)c(Oc4cnc5[nH]ccc5c4)c3)CC2)=C(c2ccc(Cl)cc2)C1
### Response class 0

### Prompt Now try CC1(C)CCC(CN2CCN(c3ccc(C(=O)NS(=O)(=O)c4ccc(NC[C@H]5CC[C@@]6(CCCO6)CC5)c([N+](=O)[O-])c4)c(Oc4cnc5[nH]ccc5c4)c3)CC2)=C(c2ccc(Cl)cc2)C1 .
### Response class 1

### Prompt What about this molecule? CC(C)(O)CCNc1ccc(S(=O)(=O)NC(=O)c2ccc(N3CCN(CC4=C(c5ccc(Cl)cc5)CC(C)(C)CC4)CC3)cc2Oc2cnc3[nH]ccc3c2)cc1[N+](=O)[O-]
### Response class 0

----------
- study_target: GST-Bcl-2 (Homo sapiens)
- Sequence (P10415 whole entry): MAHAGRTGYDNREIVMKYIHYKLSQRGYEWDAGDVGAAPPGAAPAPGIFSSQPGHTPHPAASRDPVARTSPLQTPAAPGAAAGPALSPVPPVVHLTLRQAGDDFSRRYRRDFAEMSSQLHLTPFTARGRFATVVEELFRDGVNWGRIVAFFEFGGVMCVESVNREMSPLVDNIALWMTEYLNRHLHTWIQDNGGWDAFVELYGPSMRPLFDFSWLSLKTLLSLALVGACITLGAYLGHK
Reported Ki is given for each of the following compounds.

### Prompt Bench note: what Ki did CC1(C)CCC(CN2CCN(c3ccc(C(=O)NS(=O)(=O)c4ccc(NCC5(C#N)CCOCC5)c([N+](=O)[O-])c4)c(Oc4cnc5[nH]ccc5c4)c3)CC2)=C(c2ccc(Cl)cc2)C1 show?
### Response < 0.1 nM

### Prompt Now the compound CC1(C)CCC(CN2CCN(c3ccc(C(=O)NS(=O)(=O)c4ccc(NCC5CC[S+]([O-])CC5)c([N+](=O)[O-])c4)c(Oc4cnc5[nH]ccc5c4)c3)CC2)=C(c2ccc(Cl)cc2)C1 (centres unmarked)
### Response < 0.1 nM

### Prompt // query: CC1(C)CCC(CN2CCN(c3ccc(C(=O)NS(=O)(=O)c4ccc(NCC5(O)CCOCC5)c([N+](=O)[O-])c4)c(Oc4cnc5[nH]ccc5c4)c3)CC2)=C(c2ccc(Cl)cc2)C1
### Response < 0.1 nM

### Prompt Now consider CC1(C)CCC(CN2CCN(c3ccc(C(=O)NS(=O)(=O)c4ccc(NC[C@H]5CC[C@]6(CCCO6)CC5)c([N+](=O)[O-])c4)c(Oc4cnc5[nH]ccc5c4)c3)CC2)=C(c2ccc(Cl)cc2)C1 .
### Response < 0.1 nM

### Prompt # iterate: CC1(C)CCC(CN2CCN(c3ccc(C(=O)NS(=O)(=O)c4ccc(NCC5CCOCC5)c([N+](=O)[O-])c4)c(Oc4cnc5[nH]ccc5c4)c3)CC2)=C(c2ccc(Cl)c(Cl)c2)C1
### Response 0.2 nM

----------
pKi: −log10 of the molar value.
Below are molecules with their pKi as measured on GST-Bcl-2 (Homo sapiens).

molecule="CC1(C)CCC(CN2CCN(c3ccc(C(=O)NS(=O)(=O)c4ccc(NC[C@H]5COCC(C)(C)O5)c([N+](=O)[O-])c4)c(Oc4cnc5[nH]ccc5c4)c3)CC2)=C(c2ccc(Cl)cc2)C1 [Example 37]" study_target="GST-Bcl-2 (Homo sapiens)" result="> 10.00"

### Prompt Give its pKi value. Item: CC1(C)CCC(CN2CCN(c3ccc(C(=O)NS(=O)(=O)c4ccc(NC[C@H]5COCCO5)c([N+](=O)[O-])c4)c(Oc4cnc5[nH]ccc5c4)c3)CC2)=C(c2ccc(Cl)cc2)C1 [Example 9]
### Response > 10.00

### Prompt How about C[C@H]1CO[C@@H](CNc2ccc(S(=O)(=O)NC(=O)c3ccc(N4CCN(CC5=C(c6ccc(Cl)cc6)CC(C)(C)CC5)CC4)cc3Oc3cnc4[nH]ccc4c3)cc2[N+](=O)[O-])CO1 [Example 45] ?
### Response > 10.00

### Prompt Continue with CC1(C)CCC(CN2CCN(c3ccc(C(=O)NS(=O)(=O)c4ccc(NC[C@@H]5CCOC(C)(C)C5)c([N+](=O)[O-])c4)c(Oc4cnc5[nH]ccc5c4)c3)CC2)=C(c2ccc(Cl)cc2)C1 [Example 34]
### Response > 10.00

### Prompt Ok, now CC1(C)CCC(CN2CCN(c3ccc(C(=O)NS(=O)(=O)c4ccc(NC[C@H]5CCCOCC5)c([N+](=O)[O-])c4)c(Oc4cnc5[nH]ccc5c4)c3)CC2)=C(c2ccc(Cl)cc2)C1 [Example 20]
### Response > 10.00

### Prompt CC1(C)CCC(CN2CCN(c3ccc(C(=O)NS(=O)(=O)c4ccc(NC[C@@H]5CCOC5)c([N+](=O)[O-])c4)c(Oc4cnc5[nH]ccc5c4)c3)CC2)=C(c2ccc(Cl)cc2)C1 [Example 36] ?
### Response > 10.00

### Prompt Check CC1(C)CCC(CN2CCN(c3ccc(C(=O)NS(=O)(=O)c4ccc(NC[C@H]5C[C@H](C#N)C5)c([N+](=O)[O-])c4)c(Oc4cnc5[nH]ccc5c4)c3)CC2)=C(c2ccc(Cl)cc2)C1 [Example 41] too.
### Response > 10.00

### Prompt Another molecule: CC1(C)CCC(CN2CCN(c3ccc(C(=O)NS(=O)(=O)c4ccc(NCC5CCS(=O)(=O)CC5)c([N+](=O)[O-])c4)c(Oc4cnc5[nH]ccc5c4)c3)CC2)=C(c2ccc(Cl)cc2)C1 [Example 43]
### Response > 10.00

### Prompt # iterate: CC1(C)CCC(CN2CCN(c3ccc(C(=O)NS(=O)(=O)c4ccc(NC[C@H]5C[C@@H](C#N)C5)c([N+](=O)[O-])c4)c(Oc4cnc5[nH]ccc5c4)c3)CC2)=C(c2ccc(Cl)cc2)C1 [Example 42]
### Response > 10.00

### Prompt Similarly, COC1(CNc2ccc(S(=O)(=O)NC(=O)c3ccc(N4CCN(CC5=C(c6ccc(Cl)cc6)CC(C)(C)CC5)CC4)cc3Oc3cnc4[nH]ccc4c3)cc2[N+](=O)[O-])CCOCC1 [Example 27] ?
### Response > 10.00
